FYI, the data here is from the supplement of paper PMC8728848.

Entries annotated with measured glycan array binding signal (z-score)
Target: Neu5Ac(a2-6)Gal(b1-4)GlcNAc(b1-3)Gal(b1-4)GlcNAc(b1-2)Man(a1-3)[Neu5Ac(a2-6)Gal(b1-4)GlcNAc(b1-3)Gal(b1-4)GlcNAc(b1-2)Man(a1-6)]GalNAc
Assay: glycan array binding signal (z-score within array); higher = stronger binding
Conditions: glycan notation: IUPAC condensed, linker removed
Only a selection was taken, and the strongest signals are over-represented in it overall.
measured-metric: glycan array binding signal (z-score)

binder	measurement
DC-Sign-R (Homo sapiens), Q9H2X3 (protein) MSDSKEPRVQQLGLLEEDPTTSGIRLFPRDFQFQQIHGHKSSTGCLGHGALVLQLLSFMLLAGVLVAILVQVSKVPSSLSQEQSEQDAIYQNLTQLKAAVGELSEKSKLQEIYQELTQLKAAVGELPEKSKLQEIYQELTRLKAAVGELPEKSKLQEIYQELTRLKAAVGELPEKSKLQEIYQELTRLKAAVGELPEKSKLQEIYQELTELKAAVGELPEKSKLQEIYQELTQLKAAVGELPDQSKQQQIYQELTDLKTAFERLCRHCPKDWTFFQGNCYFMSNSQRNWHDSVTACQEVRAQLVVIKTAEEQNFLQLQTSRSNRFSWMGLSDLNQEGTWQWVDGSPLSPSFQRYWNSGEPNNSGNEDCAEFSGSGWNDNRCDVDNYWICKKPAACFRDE	4.44
Gal 2 (Homo sapiens), P05162 (protein) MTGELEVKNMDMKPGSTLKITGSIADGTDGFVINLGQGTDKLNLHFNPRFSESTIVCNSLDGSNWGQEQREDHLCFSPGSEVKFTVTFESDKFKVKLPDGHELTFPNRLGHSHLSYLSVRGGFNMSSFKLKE	-0.008
TIM1 (protein) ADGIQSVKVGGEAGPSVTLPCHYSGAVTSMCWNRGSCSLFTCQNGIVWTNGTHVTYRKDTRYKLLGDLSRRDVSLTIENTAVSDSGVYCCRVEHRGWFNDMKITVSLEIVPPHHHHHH	1.3
MUB70 (Lactobacillus reuteri) (protein) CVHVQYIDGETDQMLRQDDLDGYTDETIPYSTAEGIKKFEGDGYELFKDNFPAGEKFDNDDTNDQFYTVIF	0.348
LlpB (Pseudomonas fluorescens) (protein) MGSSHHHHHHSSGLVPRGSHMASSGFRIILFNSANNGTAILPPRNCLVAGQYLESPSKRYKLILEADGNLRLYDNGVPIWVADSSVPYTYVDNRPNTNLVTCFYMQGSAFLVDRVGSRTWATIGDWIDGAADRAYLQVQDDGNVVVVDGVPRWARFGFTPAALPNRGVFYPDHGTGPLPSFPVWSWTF	2.6
AT5G01260(PC)(40) (Arabidopsis thaliana), Q9LFB0 (protein) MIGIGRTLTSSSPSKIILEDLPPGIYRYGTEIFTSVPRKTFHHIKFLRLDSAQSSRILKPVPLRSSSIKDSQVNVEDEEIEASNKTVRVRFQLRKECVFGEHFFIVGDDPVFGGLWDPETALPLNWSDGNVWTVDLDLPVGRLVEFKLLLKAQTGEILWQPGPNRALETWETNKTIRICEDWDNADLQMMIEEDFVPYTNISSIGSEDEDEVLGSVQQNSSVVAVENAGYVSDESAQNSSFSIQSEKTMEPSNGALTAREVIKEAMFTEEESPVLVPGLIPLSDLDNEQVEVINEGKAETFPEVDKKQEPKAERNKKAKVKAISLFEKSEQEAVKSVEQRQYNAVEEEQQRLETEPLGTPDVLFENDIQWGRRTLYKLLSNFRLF	0.243
RsaA-N-term (Caulobacter crescentus), P35828 (protein) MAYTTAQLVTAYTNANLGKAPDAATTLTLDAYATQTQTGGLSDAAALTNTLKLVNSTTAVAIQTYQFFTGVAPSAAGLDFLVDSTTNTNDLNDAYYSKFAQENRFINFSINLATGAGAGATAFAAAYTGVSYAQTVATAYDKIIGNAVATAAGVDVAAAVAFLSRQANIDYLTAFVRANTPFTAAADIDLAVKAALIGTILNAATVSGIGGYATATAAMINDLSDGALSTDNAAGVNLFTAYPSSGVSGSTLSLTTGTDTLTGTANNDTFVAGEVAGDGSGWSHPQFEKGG	-1.33
LTL (Lotus tetragonolobus), P19664 (protein) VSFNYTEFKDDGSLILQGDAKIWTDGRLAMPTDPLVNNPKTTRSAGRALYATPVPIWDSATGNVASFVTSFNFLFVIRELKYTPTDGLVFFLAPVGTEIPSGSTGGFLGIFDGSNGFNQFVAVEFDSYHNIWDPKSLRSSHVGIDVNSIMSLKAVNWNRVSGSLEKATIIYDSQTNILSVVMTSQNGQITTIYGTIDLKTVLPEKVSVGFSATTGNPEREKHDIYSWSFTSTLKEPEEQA	1.11
HFR-3 (Triticum aestivum) (protein) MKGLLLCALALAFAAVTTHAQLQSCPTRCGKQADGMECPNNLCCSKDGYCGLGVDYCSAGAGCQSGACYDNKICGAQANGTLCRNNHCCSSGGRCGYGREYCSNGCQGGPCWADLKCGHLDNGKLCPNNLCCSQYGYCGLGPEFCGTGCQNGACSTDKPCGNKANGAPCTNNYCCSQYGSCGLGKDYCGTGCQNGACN	0.189
Clec18A (Homo sapiens) (protein) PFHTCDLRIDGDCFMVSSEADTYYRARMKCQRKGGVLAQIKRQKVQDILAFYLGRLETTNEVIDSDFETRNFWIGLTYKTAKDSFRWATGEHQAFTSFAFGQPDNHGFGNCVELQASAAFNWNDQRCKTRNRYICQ	-0.045
